Tested on: SNB-75 CNS
METHOD_DESCRIPTION: NCI tumour cell line growth inhibition, 48 h
Documented TGI across a set of compounds
EXPERIMENTAL_READOUT: TGI

>>> result("Cn1cc(-c2nonc2-c2c[nH]c3ccccc23)c2ccccc21")
"0.761 µM"
>>> result("C[n+]1c(/C=C\\C=C\\N2CCCCC2)sc2ccccc21")
"17 µM"
>>> result("Nc1ncnc2c1ncn2C1OC(COP(=O)(O)CP(=O)(O)O)C(O)C1O (stereo not drawn)")
"> 100 µM"
>>> result("COc1ccc(/C(=N/NC(N)=O)C2(O)C(=O)Nc3ccc([N+](=O)[O-])cc32)cc1 (stereo not drawn)")
"69.8 µM"
>>> result("O=C(O)c1ccccc1Cc1ccco1")
"> 100 µM"
>>> result("COc1ccc(-c2nc(N)c(C#N)c3c2CCS(=O)(=O)c2ccc(C)cc2-3)cc1OC")
"69.7 µM"
>>> result("COC(=O)C(=O)C(C(=O)Nc1cccc(C)c1C)C1Sc2ccccc2NC1=O (stereo not drawn)")
"> 25 µM"
>>> result("O=C1C2CCCCC2C(=O)N1n1c(Cc2ccc(Cl)cc2)n[nH]c1=O (stereo not drawn)")
"> 100 µM"
>>> result("Cc1c2cc[nH]c(=O)c2c(C)c2c1[nH]c1cc(OCCN3CCN(C)CC3)ccc12")
"6.81 µM"
>>> result("COc1ccc(-c2[nH]ncc2-c2cc3c(c(OC)c2)OCC(=O)N3)cc1")
"0.797 µM"
>>> result("CC(=O)N1CCN(C2=Nc3ccccc3CO2)C1=S")
"> 100 µM"
>>> result("CCCCCCCCCCCOC(=S)NC(C)C")
"62.8 µM"
>>> result("COc1cc(-c2nn3c(/C=C4/C(=O)Nc5ccccc54)c(-c4ccc(C)cc4)nc3s2)cc(OC)c1OC")
"10.7 µM"
>>> result("O=C1Oc2ccccc2C(=O)/C1=C/N1C(=O)N/C(=C\\c2ccccc2O)C1=O")
"> 100 µM"
>>> result("Cc1cc(C)nc(NC(N)=NCCc2ccccc2)n1")
"9.75 µM"
>>> result("O=C1c2ccccc2C(=O)N1n1c(Cc2ccccc2)n[nH]c1=O")
"> 100 µM"
>>> result("CN(C)CC(/C(Cc1ccccc1)=N\\NC(=O)C[n+]1ccccc1)c1ccccc1 (stereo not drawn)")
"> 100 µM"
>>> result("OCC1OC(c2scc3c(=S)nc[nH]c23)C(O)C1O (stereo not drawn)")
"30.5 µM"
>>> result("Cc1cccc(C(=O)c2cccc3ccccc23)c1C(=O)O")
"> 100 µM"
>>> result("Cc1c2cc[nH]c(C(F)(F)F)c2cc2c1nc1ccccc12")
"108 µM"
>>> result("CN(C)CCCOc1ccccc1NC1=C(Cl)C(=O)C(Nc2ccccc2OCCCN(C)C)=C(Cl)C1=O")
"3.02 µM"
>>> result("COC(=O)[C@@H](NC(=O)NC(=O)NC(=O)CI)C(C)C")
"26.8 µM"
>>> result("CC[C@@]1(O)C(=O)OCc2c1cc1n(c2=O)Cc2c-1nc1ccccc1c2/C=N\\NC(=O)C(N)CC(C)C (stereo partly drawn)")
"< 0.0248 µM"
>>> result("O=S(=O)(c1ccc(Br)cc1)n1c2ccc(Br)cc2c2nc3ccccc3nc21")
"82.6 µM"
>>> result("c1csc(-c2ccc(-c3ccc(-c4ccc(-c5cccs5)s4)s3)s2)c1")
"> 100 µM"
>>> result("CCC(C)[C@@H](NCc1ccccc1)[C@H](OCc1ccccc1)[C@@H]1COC(C)(C)O1 (stereo partly drawn)")
"> 100 µM"
>>> result("C=CCC1OC(C)(C)Oc2ccc(OCOCCOC)cc21 (stereo not drawn)")
"> 100 µM"
>>> result("CCC1(C)NN=c2s/c(=C/c3ccc(OC)cc3)c(=O)n2N1 (stereo not drawn)")
"> 100 µM"
>>> result("O=C(Cc1ccccc1)NCCc1ccc(O)c(O)c1")
"> 100 µM"
>>> result("Clc1ccc2c(SCC3CO3)c3ccccc3nc2c1 (stereo not drawn)")
"60.5 µM"
>>> result("Cc1ccc(C)c(NC(=O)C(=O)CC(=O)C2CCOC2=O)c1 (stereo not drawn)")
"> 100 µM"
>>> result("COC(=O)N1CC2(CO)C3CC=C(C(=O)Nc4ccccc4Br)C2C1C3Br (stereo not drawn)")
"> 50 µM"
>>> result("C1OCC2S[C@@H]3COCO[C@@H]3C2O1 (stereo partly drawn)")
"> 100 µM"
>>> result("O=C(O)CN(c1ccccc1)S(=O)(=O)c1ccc(NC(=O)c2ccccc2)cc1")
"> 100 µM"
>>> result("CCOC(=O)c1cnc(-n2[nH]c(C)c(CCO)c2=O)[nH]c1=O")
"> 100 µM"
>>> result("CCCN(CCC)CCCNCc1cc(I)cc(C)c1O")
"29 µM"
>>> result("O=P([O-])(O)OP(=O)([O-])O.[NH-][C@H]1CCCC[C@@H]1[NH-].[OH-].[OH-].[Pt+4]")
"41 µM"
>>> result("C=C(C)[C@@H]1CC[C@]2(C(=O)O)CC[C@]3(C)[C@H](CC[C@@H]4[C@@]5(C)CC(=O)C(C)(C)[C@@H]5CC[C@]43C)[C@@H]12")
"> 25 µM"
>>> result("CC12CC3C(CC1SCC(=O)O2)C3(C)C (stereo not drawn)")
"> 100 µM"
>>> result("[O-]/[N+](=C\\c1ccccc1)[C@H](COCc1ccccc1)c1ccccc1")
"> 100 µM"
>>> result("O=C1N[C@H]2c3c(Cl)sc(Cl)c3/C(=N/O)[C@H]2O1")
"> 100 µM"
>>> result("O=C(Nc1cccc2ccccc12)Oc1ccccc1C1CCCCC1")
"29.8 µM"
>>> result("Cc1nc2ccc(CN(C)c3ccc(C(=O)N[C@@H](CCC(=O)O)C(=O)O)s3)cc2c(=O)[nH]1")
"> 100 µM"
